# System: duck salad (Heteranthera limosa)
# test.description: Test C flooded paddy test
# Format: in vivo
# condition.parameters: Flooded Paddy; Rate 500 g/ha; scale 0 to 100, 0 no effect, 100 complete control
quantity.measured: Ducksalad plant response rating
Please reply with the value in numeric form only.

Lookup: Hello, please tell me recorded Ducksalad plant response rating for this one: CCCCC(CCCC)c1ccn(C2SCN(c3cccc(OC(F)(F)F)c3)C2=O)n1 (stereo not drawn)
Found: 0

Lookup: Hello, please tell me recorded Ducksalad plant response rating for this one: CCOc1cccc(N2CCC(n3ccc(C(C)(C)C)n3)C2=O)c1 (stereo not drawn)
Found: 100

Lookup: Hello, please tell me recorded Ducksalad plant response rating for this one: O=C1C(n2ccc(C3CCC3)n2)SCN1c1cccc(OC(F)(F)F)c1 (stereo not drawn)
Found: 80

Lookup: Hello, please tell me recorded Ducksalad plant response rating for this one: COC(=O)c1cccc(N2CCC(n3ccc(C(C)(C)C)n3)C2=O)c1 (stereo not drawn)
Found: 100

Lookup: Hello, please tell me recorded Ducksalad plant response rating for this one: CCC(C)Oc1ccn(C2CCN(c3cccc(C(F)(F)F)c3)C2=O)n1 (stereo not drawn)
Found: 0

Lookup: Hello, please tell me recorded Ducksalad plant response rating for this one: COc1cc(N2CCC(n3ccc(C(C)(C)C)n3)C2=O)cc2ccccc12 (stereo not drawn)
Found: 0

Lookup: Hello, please tell me recorded Ducksalad plant response rating for this one: CCOc1cccc(N2CCC(n3ccc(C(C)C)n3)C2=O)c1 (stereo not drawn)
Found: 100

Lookup: Hello, please tell me recorded Ducksalad plant response rating for this one: CC(C)(C)c1ccn(C2CCN(c3cccc(C(F)(F)F)c3)C2=S)n1 (stereo not drawn)
Found: 100

Lookup: Hello, please tell me recorded Ducksalad plant response rating for this one: CCCCC(C)c1ccn(C2SCN(c3cccc(C(F)(F)F)c3)C2=O)n1 (stereo not drawn)
Found: 90

Lookup: Hello, please tell me recorded Ducksalad plant response rating for this one: Cc1c(F)cc(N2CCC(n3ccc(C(C)(C)C)n3)C2=O)cc1Br (stereo not drawn)
Found: 0

Lookup: Hello, please tell me recorded Ducksalad plant response rating for this one: COc1cc(N2CCC(n3ccc(C(C)C)n3)C2=O)ccc1Br (stereo not drawn)
Found: 95

Lookup: Hello, please tell me recorded Ducksalad plant response rating for this one: CC(C)(C)c1ccn(C2CCN(c3cccc(OC(F)(F)C(F)F)c3)C2=O)n1 (stereo not drawn)
Found: 90

Lookup: Hello, please tell me recorded Ducksalad plant response rating for this one: CC(C)Oc1cccc(N2CCC(n3ccc(C(C)C)n3)C2=O)c1 (stereo not drawn)
Found: 100

Lookup: Hello, please tell me recorded Ducksalad plant response rating for this one: O=C1C(n2ccc(C3CCC3)n2)SCN1c1cccc(C(F)(F)F)c1 (stereo not drawn)
Found: 100

Lookup: Hello, please tell me recorded Ducksalad plant response rating for this one: CC(C)c1cccc(N2CCC(n3ccc(C(C)(C)C)n3)C2=O)c1 (stereo not drawn)
Found: 0

Lookup: Hello, please tell me recorded Ducksalad plant response rating for this one: CCC(CC)c1ccn(C2CCN(c3ccc(F)c(C(F)(F)F)c3)C2=O)n1 (stereo not drawn)
Found: 100

Lookup: Hello, please tell me recorded Ducksalad plant response rating for this one: CCCOC(=O)c1cccc(N2CCC(n3ccc(C(C)(C)C)n3)C2=O)c1 (stereo not drawn)
Found: 70

Lookup: Hello, please tell me recorded Ducksalad plant response rating for this one: CCC(C)c1ccn(C2CCN(c3ccc(Cl)c(OC)c3)C2=O)n1 (stereo not drawn)
Found: 100

Lookup: Hello, please tell me recorded Ducksalad plant response rating for this one: CCC(C)c1ccn(C2SCN(c3cccc(OC(F)(F)F)c3)C2=O)n1 (stereo not drawn) [Compound 40]
Found: 100

Lookup: Hello, please tell me recorded Ducksalad plant response rating for this one: Cc1cccc(N2CCC(n3ccc(C(C)(C)C)n3)C2=O)c1 (stereo not drawn)
Found: 30

Lookup: Hello, please tell me recorded Ducksalad plant response rating for this one: CCCC(C)c1ccn(C2CCN(c3ccc(Cl)c(OC)c3)C2=O)n1 (stereo not drawn)
Found: 90

Lookup: Hello, please tell me recorded Ducksalad plant response rating for this one: CC(C)c1ccn(C2SCN(c3cccc(OC(F)(F)F)c3)C2=O)n1 (stereo not drawn)
Found: 100

Lookup: Hello, please tell me recorded Ducksalad plant response rating for this one: CCCC(C)c1ccn(C2SCN(c3cccc(C(F)(F)F)c3)C2=O)n1 (stereo not drawn)
Found: 100

Lookup: Hello, please tell me recorded Ducksalad plant response rating for this one: CC(C)c1ccn(C2OCN(c3cccc(C(F)(F)F)c3)C2=O)n1 (stereo not drawn)
Found: 90

Lookup: Hello, please tell me recorded Ducksalad plant response rating for this one: CCC(C)c1ccn(C2CCN(c3cccc(OC(C)C)c3)C2=O)n1 (stereo not drawn)
Found: 100

Lookup: Hello, please tell me recorded Ducksalad plant response rating for this one: CC(C)(C)c1ccn(C2CCN(c3cc(C(F)(F)F)cc(C(F)(F)F)c3)C2=O)n1 (stereo not drawn)
Found: 0

Lookup: Hello, please tell me recorded Ducksalad plant response rating for this one: Cc1c(Cl)cc(N2CCC(n3ccc(C(C)(C)C)n3)C2=O)cc1Cl (stereo not drawn)
Found: 0

Lookup: Hello, please tell me recorded Ducksalad plant response rating for this one: CC(C)(C)c1ccn(C2CCN(c3cc(Cl)cc(Cl)c3)C2=O)n1 (stereo not drawn)
Found: 50

Lookup: Hello, please tell me recorded Ducksalad plant response rating for this one: Cc1cc(N2CCC(n3ccc(C(C)(C)C)n3)C2=O)ccc1Cl (stereo not drawn)
Found: 60

Lookup: Hello, please tell me recorded Ducksalad plant response rating for this one: CC(C)(C)c1ccn(C2CCN(c3ccc4c(c3)CCC4)C2=O)n1 (stereo not drawn)
Found: 0

* * *

Would you kindly list Plant response rating, Pigweed for each of these molecules?
# Tested on: pigweed (Amaranthus retroflexus)
# test.description: Test C postemergence
# Assay type: in vivo
# condition.parameters: Rate 250 g/ha, scale 0 to 100 (0 no effect, 100 complete control)
Please reply with the value in numeric form only.

Lookup: Hello, please tell me recorded Plant response rating, Pigweed for this one: Cc1ccc(N2CCC(n3ccc(C(C)(C)C)n3)C2=O)cc1OCCCl (stereo not drawn) [Compound 109]
Found: 70

Lookup: Hello, please tell me recorded Plant response rating, Pigweed for this one: CCC(CC)c1ccn(C2OCN(c3cccc(OC(F)F)c3)C2=O)n1 (stereo not drawn) [Compound 131]
Found: 90

Lookup: Hello, please tell me recorded Plant response rating, Pigweed for this one: CCC(CC)c1ccn(C2CCN(c3ccc(Br)c(OC)c3)C2=O)n1 (stereo not drawn) [Compound 143]
Found: 70

Lookup: Hello, please tell me recorded Plant response rating, Pigweed for this one: CCCC(C)c1ccn(C2CCN(c3ccc(Cl)c(OC)c3)C2=O)n1 (stereo not drawn) [Compound 121]
Found: 70

Lookup: Hello, please tell me recorded Plant response rating, Pigweed for this one: CCC(C)c1ccn(C2SCN(c3cccc(C(F)(F)F)c3)C2=O)n1 (stereo not drawn) [Compound 20]
Found: 80

Lookup: Hello, please tell me recorded Plant response rating, Pigweed for this one: CCC(CC)c1ccn(C2CCN(c3ccc(C)c(OC)c3)C2=O)n1 (stereo not drawn) [Compound 81]
Found: 60

* * *

# Test system: pigweed (Amaranthus retroflexus)
# test.description: Test B preemergence
# Assay type: in vivo
# condition.parameters: preemergence; Rate 125 g/ha; scale of 0 to 100 where 0 is no effect and 100 is complete control; 13 to 15 days
Would you kindly list Plant response rating, Pigweed for each of these compounds?
Please reply with the value in numeric form only.

Lookup: Hello, please tell me recorded Plant response rating, Pigweed for this one: CCC(C)Oc1ccn(C2CCN(c3cccc(C(F)(F)F)c3)C2=O)n1 (centres unmarked) [Compound 58]
Found: 0

Lookup: Hello, please tell me recorded Plant response rating, Pigweed for this one: CCCC(C)c1ccn(C2OCN(c3cccc(C(F)(F)F)c3)C2=O)n1 (centres unmarked) [Compound 89]
Found: 90

Lookup: Hello, please tell me recorded Plant response rating, Pigweed for this one: CC1(c2ccn(C3SCN(c4cccc(OC(F)(F)F)c4)C3=O)n2)CC1 (centres unmarked) [Compound 63]
Found: 100

Lookup: Hello, please tell me recorded Plant response rating, Pigweed for this one: CCCCC(C)c1ccn(C2SCN(c3cccc(C(F)(F)F)c3)C2=O)n1 (centres unmarked) [Compound 103]
Found: 0

Lookup: Hello, please tell me recorded Plant response rating, Pigweed for this one: CCC(C)c1ccn(C2CCN(c3ccc(Br)c(OC)c3)C2=O)n1 (centres unmarked) [Compound 142]
Found: 100

Lookup: Hello, please tell me recorded Plant response rating, Pigweed for this one: Cc1cc(C)nc(N2CCC(n3ccc(C(C)(C)C)n3)C2=O)c1 (centres unmarked) [Compound 138]
Found: 100

Lookup: Hello, please tell me recorded Plant response rating, Pigweed for this one: COc1cc(N2CCC(n3ccc(C(C)(C)C)n3)C2=O)cc2ccccc12 (centres unmarked) [Compound 136]
Found: 0

Lookup: Hello, please tell me recorded Plant response rating, Pigweed for this one: CCCCC(C)c1ccn(C2OCN(c3cccc(OC(F)(F)F)c3)C2=O)n1 (centres unmarked) [Compound 97]
Found: 0

Lookup: Hello, please tell me recorded Plant response rating, Pigweed for this one: CC(C)(C)c1ccn(C2CCN(c3ccc(F)c(Cl)c3)C2=O)n1 (centres unmarked) [Compound 46]
Found: 100

Lookup: Hello, please tell me recorded Plant response rating, Pigweed for this one: CC(C)(C)c1ccn(C2CCN(c3cccc(SC(F)(F)F)c3)C2=O)n1 (centres unmarked) [Compound 93]
Found: 0

Lookup: Hello, please tell me recorded Plant response rating, Pigweed for this one: CCC(C)c1ccn(C2CCN(c3ccc(Cl)c(OC)c3)C2=O)n1 (centres unmarked) [Compound 119]
Found: 100

Cited source for all entries: patent US7138361B2
